Molecular target: T1, human big-endothelin-1 (big-ET-1) (human)
T1 construct: 38 amino acid peptide; also called human big-ET-1; hBig-ET-1
T1 peptide: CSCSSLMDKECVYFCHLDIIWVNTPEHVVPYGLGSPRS
Test: SPR (Biacore T200), 37 C, mAb capture, peptide analyte
The label yes (1) is reserved for kon strictly under 200000 M⁻¹ s⁻¹; no (0) covers values equal to or above it.

Is the reported kon for H4H6317P (antibody, V domains shown, Human IgG4 Fc (prefix H4H)) VH: QVQLVESGGGVVQPGRSLRLSCAASGFTFSSYGMHWVRQAPGKGLEWVAVLWYDGRNKYYADSVKGRFTISRDNSKNTLYLQMNSLRAEDTAVYYCARSYDAFDIWGQGTMVTVSS VL: DIQMTQSPSTLSASVGDRVTITCRASQSISSWLAWFQQGPGRAPKLLIYKASTLQSGVPSRFSGSGSGTEFTLTISSLQPDDFATYYCQQYRSYSPTFGQGTKVEIK strictly below 200000 M⁻¹ s⁻¹? yes (1)

Is the reported kon for H1M6492N (antibody, V domains shown, Hybridoma antibody, human variable domains, mouse constant domains; prefix H1M marks the Fc region (isotype not spelled out)) VH: EVQLVESGGGLVKPGGSLRVSCVASGFTFSNAWMTWVRQTPGKGLECVGRIKSRTDGGTVDYVAPVKGRFTISRDDSKNTLYLQMNSLKAEDTAVYYCRADLDYWGQGTLVTVSS VL: DVVMTQSPLSLPVSLGQPASISCRSSQSLVHSDGITYLNWFQQRPGQSPRRLIYKISNRDSGVPDRFSGSGSGTDFTLKFSRVEAEDVGVYFCMQGTHWPYTFGQGTKLEIK strictly below 200000 M⁻¹ s⁻¹? no (0)

Is the reported kon for H4H6353P (antibody, V domains shown, Human IgG4 Fc (prefix H4H)) VH: EVQLVESGGGLVKPGGSLRLSCAASGFSFNYAWMSWVRQAPGKGLEWIGRIKSKINGGTTDYTAPVKGRFTISRDDSKNTLYLQMNSLKTEDTAVYYCRGDEDFWGQGTLVTVSS VL: DVVMTQSPLSLPVTLGQPASISCRSSQSLVYSDGFTYLNWFRQRPGQSPRRLIYKVSNRDSGVPDRFSGSGSGTDFTLRISRVEAEDVGIYYCMQGTHWPYTFGQGTKLEIK strictly below 200000 M⁻¹ s⁻¹? no (0)

Is the reported kon for H2M6490N (antibody, V domains shown, Hybridoma antibody, human variable domains, mouse IgG2 Fc (prefix H2M)) VH: EVQLLESGGGLVQPGGSLRLSCAASGFTFSSYAMTWVRQAPGKGLECISAISGSGYSTYYADSMKGRFSISRDNSKNTLYLQMNRLRAEDTAVYYCTKGGRILEWLLPFDFWGQGTLVTVSS VL: DVVMTQSPLSLPVTLGQPASISCRSSQSLVYSDGNTYLIWFQQRPGQSPRRLIYKVSNRDSGVPDRFSGSGSGTDFTLIISRVEAEDVGLYYCMQGTHWPPTFGGGTKVEIK strictly below 200000 M⁻¹ s⁻¹? no (0)

API: the following record is the query input.
Is the reported kon for H4H6330P (antibody, V domains shown, Human IgG4 Fc (prefix H4H)) VH: EVQLVESGGGLVQPGGSLRLSCAASGFTFSNYAMSWVRQAPGKGLEWVSAVSGSGVGTYYADSVKGRFTISRDNSKNTLYLQMKSLSAEDTALYYCTKTLGGTHAFDIWGQGTMVTVSS VL: DIQMTQSPSTLSASVGDRVTITCRASQSISRWLAWYQQKPGKAPKLLIYKASSLESGVPSRFSGSGSGTEFTVTINSLQPDDFATYYCQQYNSYSSFGQGTKLEIK strictly below 200000 M⁻¹ s⁻¹? no (0)
